# assay notes: Toxicity liver stage against HepG2, at 10uM
# Format: cell-based
# Design: test concentration 10 uM, cell line HepG2-A16-CD81EGFP
# measurement setup: human, HepG2-A16-CD81EGFP cells; read-out: INHIBITION
endpoint: cytotoxicity at 10 µM (%)
// return numeric value only (unit: %, not printed)

The examples below pair each entry with its known result.
compound: Cc1ccc(S(=O)(=O)NC2CC2)cc1C
quantitative result: -10.6
//
compound: Clc1cccc(Cl)c1-c1nnc(CNCCn2cccn2)o1
quantitative result: -6.46
//
compound: CCc1sc(C(=O)Nc2cnn(CCN(C)C)c2)cc1C
quantitative result: 7.9
//
compound: Cc1ccccc1CC(C)NCc1c(C)nn(C)c1N1CCOCC1 (configuration not stated)
quantitative result: -13.1
//
compound: COCc1nc(C(=O)N2CCN(Cc3cc(C)on3)CC2)cs1
quantitative result: -15

Lab note: measured cytotoxicity at 10 µM of `Cc1ccc(CNC(=O)c2c[nH]nc2NC(=O)C2CCC2)cc1` was 2.05

Lab note: measured cytotoxicity at 10 µM of `CCNC(=O)[C@@H]1C[C@H](n2cc(CC3CCCCC3)nn2)CN1` was 1.06

Lab note: measured cytotoxicity at 10 µM of Cn1cc(CC2CCN(C(=O)NCc3cccc(C(N)=O)c3)C2)cn1 (configuration not stated) was -4.25

Lab note: measured cytotoxicity at 10 µM of Cc1nccn1-c1cccc(C2CCCN2S(=O)(=O)c2cn(C)cn2)n1 (configuration not stated) was 7.99

Lab note: measured cytotoxicity at 10 µM of `Cc1ccc(CN(Cc2cccnc2)C2CC(C)(C)NC(C)(C)C2)s1` was 4.94

Lab note: measured cytotoxicity at 10 µM of `CCn1nnnc1-c1cccc(NCc2nc(C)ccc2O)c1` was -1.71

Lab note: measured cytotoxicity at 10 µM of `CN1CCC2(CCCN(C(=O)c3cncn3C)C2)CC1` was -0.757

Lab note: measured cytotoxicity at 10 µM of `CC(C)CCN(C(=O)c1ccc(-n2ncc(C#N)c2N)cc1)C1CC1` was -23.6

Lab note: measured cytotoxicity at 10 µM of `Cc1ccc2c(C)c(C(=O)NCCc3csc(N)n3)oc2c1` was -8.79

Lab note: measured cytotoxicity at 10 µM of `Cc1ccc(S(=O)(=O)NCC(C)(C)N)c(F)c1` was 7.42

Lab note: measured cytotoxicity at 10 µM of Cc1c[nH]nc1C1CCN(C(=O)Cn2cccn2)C1 (configuration not stated) was 3.09

Lab note: measured cytotoxicity at 10 µM of O=C(c1ncccn1)N1CCC2(CC1)COC(COc1ccccn1)C2 (configuration not stated) was -1.96

###

# assay notes: Toxicity liver stage against HepG2, at 10uM
# Format: cell-based
# Parameters: test concentration 10 uM, cell line HepG2-A16-CD81EGFP
# measurement setup: human, HepG2-A16-CD81EGFP cells; read-out: INHIBITION
Items are presented alongside their recorded cytotoxicity at 10 µM.
// return numeric value only (unit: %, not printed)

compound: CCn1ncc(CN2CCc3c(nc(-c4cccnc4)[nH]c3=O)C2)c1C
cytotoxicity at 10 µM (%): 1.34
--
compound: O=C(CCc1nc(Cl)n[nH]1)N[C@H]1CC[C@H]1NC1Cc2ccccc2C1
cytotoxicity at 10 µM (%): -1.74
--
compound: CCOC(=O)N[C@H]1C[C@@H](C(=O)NCc2cccc(Cl)c2)N(C)C1
cytotoxicity at 10 µM (%): -3.89

Now turn to the next compound.
Lab note: measured cytotoxicity at 10 µM of CNc1cc(N2CCCC2CNCc2csc(C)n2)ncn1 (stereo not drawn) was -9.71

###

Items are presented alongside their recorded cytotoxicity at 10 µM.
# assay notes: Toxicity liver stage against HepG2, at 10uM
# Format: cell-based
# Set-up: test concentration 10 uM, cell line HepG2-A16-CD81EGFP
# measurement setup: human, HepG2-A16-CD81EGFP cells; read-out: INHIBITION
Could you kindly put the unit after your number?

compound: Cc1cc(C2CCCN(Cc3noc(Cc4ccccc4)n3)C2)n[nH]1 (stereo not drawn)
cytotoxicity at 10 µM: 3.65%

Now turn to the next compound.
Lab note: measured cytotoxicity at 10 µM of O=C(c1ccc2[nH]ccc2c1)N1CCCSCC1CN1CCCC1 (stereo not drawn) was 9.4%

###

# assay notes: Toxicity liver stage against HepG2, at 10uM
# Type: cell-based
# Design: test concentration 10 uM, cell line HepG2-A16-CD81EGFP
# measurement setup: human, HepG2-A16-CD81EGFP cells; read-out: INHIBITION
endpoint: cytotoxicity at 10 µM (%)
// return numeric value only (unit: %, not printed)

molecule: O=C(CC1=CCCCC1)N1CCC(Cn2cc(CCO)nn2)CC1
cytotoxicity at 10 µM / %: 3.88

molecule: c1cncc(CN2CC[C@@H]3O[C@H](COCCN4CCCC4)CC[C@@H]32)c1
cytotoxicity at 10 µM / %: -156

Lab note: measured cytotoxicity at 10 µM of CN(C)CCCn1ccnc1C1CCCN(c2cc(N)ncn2)C1 (stereo not drawn) was -2.1

###

# assay notes: Toxicity liver stage against HepG2, at 10uM
# Assay type: cell-based
# Set-up: test concentration 10 uM, cell line HepG2-A16-CD81EGFP
# measurement setup: human, HepG2-A16-CD81EGFP cells; read-out: INHIBITION
Items are presented alongside their recorded cytotoxicity at 10 µM.
// return numeric value only (unit: %, not printed)

The examples below pair each entry with its known result.
molecule: COc1cccc(C(=O)N2CCCC(CNS(C)(=O)=O)C2)c1 (configuration not stated)
cytotoxicity at 10 µM, %: -17.9

molecule: CNC(=O)c1ccc(C2CN(C(=O)c3cncs3)CCO2)nc1 (configuration not stated)
cytotoxicity at 10 µM, %: -2.7

molecule: O=C(c1ccc2c(c1)[nH]c(=O)n2C1CCC(O)CC1)N1CCOCC1 (configuration not stated)
cytotoxicity at 10 µM, %: -41.4

molecule: CN(C)c1ncc(CNS(=O)(=O)c2cc(F)ccc2Cl)n1C
cytotoxicity at 10 µM, %: 6.69

molecule: Cc1nc(CN2CCCC(CCc3ccccc3F)C2)c[nH]1 (configuration not stated)
cytotoxicity at 10 µM, %: -6.55

Lab note: measured cytotoxicity at 10 µM of `CCS(=O)(=O)N1C[C@@H](c2ccccc2)[C@@]2(CCNC2=O)C1` was -108

Lab note: measured cytotoxicity at 10 µM of CC(C)(C)c1n[nH]c(C2CN(CCc3ccncc3)CCO2)n1 (configuration not stated) was -12.3

Lab note: measured cytotoxicity at 10 µM of `CCn1c(CC2CCN(S(=O)(=O)N3CCCCC3)CC2)nn(C)c1=O` was 1.58

Lab note: measured cytotoxicity at 10 µM of `COCCN(C)C[C@@H]1CCC[C@@H]2CN(c3ncccn3)C[C@@H]21` was 4.79

Lab note: measured cytotoxicity at 10 µM of `Cn1cc(CN2CCC(CCC(=O)NC3CC3)CC2)cn1` was 9.27

Lab note: measured cytotoxicity at 10 µM of `c1cc(CN2C[C@@H]3COC[C@]3(COCC3CC3)C2)ccn1` was -3.29

Lab note: measured cytotoxicity at 10 µM of `NC(=O)c1ccc(N2CCCCC2)c(NC(=O)c2ccc(Br)cc2)c1` was 11.1

Lab note: measured cytotoxicity at 10 µM of Cc1ccc2nc(C3CCCN(Cc4ccccc4)C3)nc(O)c2c1 (configuration not stated) was 6.67

Lab note: measured cytotoxicity at 10 µM of `CC(C)CC(=O)N1C[C@@H]2CCN(c3ncccn3)C[C@@H]2C1` was -1.63

Lab note: measured cytotoxicity at 10 µM of `CCOCCC(=O)NCCNc1nccc(C(F)(F)F)n1` was 2.88

Lab note: measured cytotoxicity at 10 µM of Cc1nn(C)c(C)c1C1CCCN1CC(=O)NCc1ccccn1 (configuration not stated) was 0.702

Lab note: measured cytotoxicity at 10 µM of `CC(C)(C)NC(=O)c1ccccc1NC(=O)c1ccncc1` was -10.3

Lab note: measured cytotoxicity at 10 µM of `Cc1nccc(-c2cccc(NCC(=O)N3CCCCCCC3)c2)n1` was -0.513

Lab note: measured cytotoxicity at 10 µM of `O=C(NCCCO)c1nnsc1-c1ccccc1` was 7.47

Lab note: measured cytotoxicity at 10 µM of Cc1nc(C)n(CC2CCCN(CCCc3ccccc3)C2)n1 (configuration not stated) was -6.02

Lab note: measured cytotoxicity at 10 µM of CC1c2ncc(Cn3cccn3)n2CCN1S(=O)(=O)C1CC1 (configuration not stated) was -108

Lab note: measured cytotoxicity at 10 µM of Cc1c(CN2CCCC(C(=O)Nc3ccccc3)C2)cc(C#N)n1C (configuration not stated) was 6.75

Lab note: measured cytotoxicity at 10 µM of CC(C)CN1CC2(CCN(C(=O)C3CNC(=O)N3)CC2)CC1=O (configuration not stated) was 2.18

Lab note: measured cytotoxicity at 10 µM of CCc1nc(C2CCCN2C(=O)C2=COCC2)no1 (configuration not stated) was 8.64

Lab note: measured cytotoxicity at 10 µM of `CCCn1nc(-c2nc(Cc3ccc(OC)cc3)no2)ccc1=O` was 0.0197
